Consider the following compounds; for each one, report its Emax.
- study-system: human mAChR M1 (Homo sapiens, UniProt P11229)
- Sequence (P11229 1-460): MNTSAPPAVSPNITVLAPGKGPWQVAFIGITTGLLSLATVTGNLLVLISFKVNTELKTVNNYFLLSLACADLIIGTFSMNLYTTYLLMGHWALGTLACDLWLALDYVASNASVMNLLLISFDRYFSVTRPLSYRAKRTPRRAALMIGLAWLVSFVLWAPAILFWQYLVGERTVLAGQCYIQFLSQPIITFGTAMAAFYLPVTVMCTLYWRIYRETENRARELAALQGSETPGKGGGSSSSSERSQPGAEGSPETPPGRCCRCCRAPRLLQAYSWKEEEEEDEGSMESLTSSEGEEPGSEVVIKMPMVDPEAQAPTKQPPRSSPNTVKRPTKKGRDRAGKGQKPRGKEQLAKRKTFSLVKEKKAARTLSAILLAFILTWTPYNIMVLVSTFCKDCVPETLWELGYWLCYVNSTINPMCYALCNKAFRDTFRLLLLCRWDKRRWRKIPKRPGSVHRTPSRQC
- method-description: mAChR M1 cell-based functional assay: calcium mobilization, positive allosteric modulator mode (increase in EC20 acetylcholine response)
- experimental-conditions: Table 2; human M1; read-out: Human M1 Emax (%)
Response body: numeric value in %, unit text excluded.

Query :: Given Cn1cc(-c2ccc(Cc3cc(C(=O)N[C@H]4CCCCC[C@@H]4O)nc4ccsc34)c(F)c2)cn1 , state its recorded Emax.
Result :: 53.1

Query :: Try Cn1cc(-c2ccc(Cc3cc(C(=O)N[C@H]4CCC[C@@H]4O)nc4ccsc34)cn2)cn1 next.
Result :: 79.9

Query :: Record: COCCNC(=O)c1cc(Cc2ccc(-c3nccs3)cc2)c2sccc2n1
Result :: 79.6

###

- study-system: human mAChR M1 (Homo sapiens, UniProt P11229)
- method-description: mAChR M1 cell-based functional assay: calcium mobilization, positive allosteric modulator mode (increase in EC20 acetylcholine response)
- experimental-conditions: Table 2; human M1; read-out: Human M1 EC50
Task for the reader: assign each of the following compounds its reported pEC50.
Please note pEC50 is a logarithmic value: minus log10 of concentration in mol/L. Answer with that number alone.

Query :: Which pEC50 value belongs to Cc1csc2c(Cc3ccc(-n4cccn4)cc3)cc(C(=O)N[C@@H]3CCCCC[C@H]3O)nc12 ?
Result :: 5.88

Query :: Try Cn1ccc2nc(C(=O)NC3CCOCC3(C)C)cc(Cc3ccc(-c4nccs4)cc3)c21 (centres unmarked) next.
Result :: 6.18

###

- study-system: human mAChR M1 (Homo sapiens)
- Sequence (P11229 1-460): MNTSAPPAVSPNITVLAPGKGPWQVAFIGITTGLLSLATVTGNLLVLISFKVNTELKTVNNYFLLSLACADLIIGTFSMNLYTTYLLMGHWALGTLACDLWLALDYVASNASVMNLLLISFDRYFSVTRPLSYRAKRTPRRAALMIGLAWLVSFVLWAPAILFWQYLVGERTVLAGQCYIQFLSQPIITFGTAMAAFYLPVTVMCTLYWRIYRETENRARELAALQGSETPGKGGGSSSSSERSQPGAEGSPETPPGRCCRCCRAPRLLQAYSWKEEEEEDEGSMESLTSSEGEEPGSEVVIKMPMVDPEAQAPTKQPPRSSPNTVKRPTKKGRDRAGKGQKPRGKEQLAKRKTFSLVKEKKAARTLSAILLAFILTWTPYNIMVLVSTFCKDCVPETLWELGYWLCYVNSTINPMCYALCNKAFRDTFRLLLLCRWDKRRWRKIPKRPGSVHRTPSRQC
- method-description: mAChR M1 cell-based functional assay: calcium mobilization, positive allosteric modulator mode (increase in EC20 acetylcholine response)
- experimental-conditions: Table 2; human M1; read-out: Human M1 Emax (%)
readout: Emax (%)
Write the number in % without appending the unit.

Query :: Look up Emax: Cc1csc2c(Cc3ccc(-n4cccn4)cc3)cc(C(=O)NCC3CCO3)nc12 (stereo not drawn)
Result :: 78.9

Query :: Cool, now Cn1cc(-c2ccc(Cc3cc(C(=O)NC[C@H]4CCCO4)nc4ccsc34)cn2)cn1
Result :: 87.4

Query :: Cool, now Cn1cc(-c2ccc(Cc3cc(C(=O)N[C@H]4CCCC[C@@H]4O)nc4ccsc34)c(F)c2)cn1
Result :: 76.9
